# Assay System: T1, TRBV5-1 antigenic peptide No. 1 (…) conjugated to BSA (human)
# T1 sequence (peptide): TQTPRYLIKTRGQQ
# Experimental Protocol: ELISA; confirmatory monoclonal phage ELISA; antigens peptide alone, peptide-BSA, peptide-biotin; controls PBS, 10% BSA-PBS, PBS-streptavidin; phage dilution factors 1, 3, 9
Reported ELISA signal at phage dilution factor 3 values for the following binders.
// no unit, no text: just the number

binder="scFv clone A12 (scFv, V domains shown, tested as phage clone in the confirmatory monoclonal ELISA; lead scFv from which the r-hIgG1 mAb was made; also called lead scFv; source: phage display clone from the human naive scFv library LiAb-SFMAX (Proteogenix), amplified in …) VH: QVQLQQWGAGLLKPSETLSLTCAVYGGSFSGYYWSWIRQPPGKGLEWIGEINHSGSTNYNPSLKSRVTISVDTSKNQFSLKLSSVTAADTAVYYCARWDLDYWGQGTLVTVSS VL: EIVLTQSPLSLPVTLGQSASISCRSSQSLVHSDGNTYLNWFQQRPGQSPRRLIYQVSKRDSGVPDRFSGSGSGTDFTLRISRVEAEDVGFYYCMQGTHWPPITFGQGTRLEIK" recorded_endpoint="ELISA signal at phage dilution factor 3" readout_value=1.82

-- ask Any idea what its ELISA signal at phage dilution factor 3 is? The binder is scFv clone A2 (scFv, V domains shown, tested as phage clone in the confirmatory monoclonal ELISA; source: phage display clone from the human naive scFv library LiAb-SFMAX (Proteogenix), amplified in E. coli TG1) VH: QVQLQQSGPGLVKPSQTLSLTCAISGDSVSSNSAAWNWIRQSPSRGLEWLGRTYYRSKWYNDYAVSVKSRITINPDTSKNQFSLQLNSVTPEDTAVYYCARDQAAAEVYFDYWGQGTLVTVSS VL: NFMLTQPHSVSESPGKTVTISCTRSSGSIASNYLQWYQQRPGSAPTTVIYEDNQRPSGVPDRFSGSIDSSSNSASLTISGLKTEDEADYYCQSYDNRNHWVFGGGTQLTVL
-- reply 4.04

Reference source: paper PMC11686114
